test: Compartmental nutrikinetic modeling of the CNA plasma concentration-time profile (one-compartment, first-order elimination); assay type: in vivo; details: male, human, oral, 12 g mixed spices, D2C, Figure 2C, read-out: Cmax (one-compartment model)
QUANTITY KIND: Cmax (nM)
Answers are plain numbers, in nM.

Data request: Which Cmax value is on record for O=C(O)/C=C/c1ccccc1 ?
Data returned: 323

###

assay: Compartmental nutrikinetic modeling of the CNA plasma concentration-time profile (one-compartment, first-order elimination); type: in vivo; details: male, human, oral, 0 g mixed spices, D0C, Figure 2C, read-out: AUC (one-compartment model)
QUANTITY KIND: AUC (µM·h)
Numbers only, in µM·h.

Data request: Field request: AUC | item: O=C(O)/C=C/c1ccccc1
Data returned: 0.0254

###

assay: Compartmental nutrikinetic modeling of the CNA plasma concentration-time profile (one-compartment, first-order elimination); assay type: in vivo; conditions: male, human, oral, 6 g mixed spices, D1C, Figure 2C, read-out: Cmax (one-compartment model)
QUANTITY KIND: Cmax
Please provide the amount together with its unit, number first.

Data request: So what does the record say about Cmax for O=C(O)/C=C/c1ccccc1 ?
Data returned: 144 nM

###

assay: Compartmental nutrikinetic modeling of the CNA plasma concentration-time profile (one-compartment, first-order elimination); format: in vivo; settings: male, human, oral, no lag time, 1st order absorption, 1st order elimination, 1-compartment model, read-out: Tmax (average, compartmental model)
QUANTITY KIND: Tmax (min)
Give bare numbers, in min.

Data request: Entry under review: O=C(O)/C=C/c1ccccc1 [Cinnamic acid (CNA), cinnamic acid] . Reported Tmax?
Data returned: 57.6

###

test: Plasma nutrikinetics of unconjugated phenolic/aromatic acids after curry test meals (LC-MS/MS, non-compartmental); details: male, human, plasma, oral, 6 g mixed spices
So I've got a bunch of compounds here, and I need their AUC(0-t) values.
Provide the measurement as a number trailed by its unit.

Worked set:
| COMPOUND | VALUE REPORTED |
| --- | --- |
| O=C(O)c1ccc(O)cc1 [4-Hydroxybenzoic acid (4OH-BA), 4-hydroxybenzoic acid] | 0.0542 µM·h |
| O=C(O)Cc1ccc(O)cc1 [4-Hydroxyphenylacetic acid (4OH-PAA), 4-hydroxyphenylacetic acid] | 2.38 µM·h |
| O=C(O)CNC(=O)c1ccccc1 | 3.22 µM·h |
| O=C(O)CCc1ccccc1 [3-Phenylpropanoate acid (PPA), 3-phenylpropanoic acid] | 2.39 µM·h |
| O=C(O)CNC(=O)c1cccc(O)c1 [3-Hydroxyhippuric acid (3OH-HA), 3-hydroxyhippuric acid] | 0.0801 µM·h |
| O=C(O)CCc1ccc(O)cc1 [3-(4-hydroxyphenyl)-propanoic acid] | 0.178 µM·h |
| O=C(O)CCc1cccc(O)c1 [3-(3-hydroxyphenyl)-propanoic acid] | 0.283 µM·h |
| O=C(O)Cc1cccc(O)c1 [3-Hydroxyphenylacetic acid (3OH-PAA), 3-hydroxyphenylacetic acid] | 0.106 µM·h |

Could you now consider this next compound?
Data request: Endpoint output: AUC(0-t) of O=C(O)/C=C/c1ccccc1 . Value?
Data returned: 0.376 µM·h

###

Please go through the items and note down their AUC(0-t).
assay: Plasma nutrikinetics of unconjugated phenolic/aromatic acids after curry test meals (LC-MS/MS, non-compartmental); conditions: male, human, plasma, oral, 0 g mixed spices
Express the reported value numerically, then name its unit.

Example compounds with recorded AUC(0-t):
| COMPOUND | AUC(0-t) |
| --- | --- |
| O=C(O)CCc1ccccc1 [3-Phenylpropanoate acid (PPA), 3-phenylpropanoic acid] | 0.831 µM·h |
| O=C(O)CNC(=O)c1ccccc1 [Hippuric acid (HA), hippuric acid] | 1.83 µM·h |

Batch request: AUC(0-t) per item, same order as input.
1. O=C(O)/C=C/c1ccccc1 [Cinnamic acid (CNA), cinnamic acid]
2. O=C(O)c1ccc(O)cc1 [4-Hydroxybenzoic acid (4OH-BA), 4-hydroxybenzoic acid]
3. O=C(O)CNC(=O)c1cccc(O)c1 [3-Hydroxyhippuric acid (3OH-HA), 3-hydroxyhippuric acid]
4. O=C(O)Cc1cccc(O)c1 [3-Hydroxyphenylacetic acid (3OH-PAA), 3-hydroxyphenylacetic acid]
5. O=C(O)CCc1cccc(O)c1 [3-(3-hydroxyphenyl)-propanoic acid]

Data returned:
1. 0.0084 µM·h
2. 0.036 µM·h
3. 0.0707 µM·h
4. 0.101 µM·h
5. 0.182 µM·h

For every record below, what is its AUC(0-t)?
1. O=C(O)Cc1ccc(O)cc1 [4-Hydroxyphenylacetic acid (4OH-PAA), 4-hydroxyphenylacetic acid]
2. O=C(O)CCc1ccc(O)cc1 [3-(4-hydroxyphenyl)-propanoic acid]

Data returned:
["2.07 µM·h", "0.126 µM·h"]

###

What Cmax was measured for each of the following?
test: Plasma nutrikinetics of unconjugated phenolic/aromatic acids after curry test meals (LC-MS/MS, non-compartmental); conditions: male, human, plasma, oral, 12 g mixed spices
Numbers only, in nM.

Solved entries (count: 6):
| COMPOUND | QUANTITY KIND | VALUE REPORTED |
| --- | --- | --- |
| O=C(O)CCc1ccccc1 [3-Phenylpropanoate acid (PPA), 3-phenylpropanoic acid] | Cmax | 554 |
| O=C(O)CCc1cccc(O)c1 [3-(3-hydroxyphenyl)-propanoic acid] | Cmax | 72.5 |
| O=C(O)Cc1cccc(O)c1 [3-Hydroxyphenylacetic acid (3OH-PAA), 3-hydroxyphenylacetic acid] | Cmax | 29.1 |
| O=C(O)Cc1ccc(O)cc1 [4-Hydroxyphenylacetic acid (4OH-PAA), 4-hydroxyphenylacetic acid] | Cmax | 633 |
| O=C(O)CCc1ccc(O)cc1 [3-(4-hydroxyphenyl)-propanoic acid] | Cmax | 81.7 |
| O=C(O)CNC(=O)c1ccccc1 [Hippuric acid (HA), hippuric acid] | Cmax | 1080 |

Could I get Cmax for every one of these entries?
1. O=C(O)c1ccc(O)cc1 [4-Hydroxybenzoic acid (4OH-BA), 4-hydroxybenzoic acid]
2. O=C(O)CNC(=O)c1cccc(O)c1 [3-Hydroxyhippuric acid (3OH-HA), 3-hydroxyhippuric acid]

Data returned:
1. 41.5
2. 31.3

Data request: I have this compound here, O=C(O)/C=C/c1ccccc1 [Cinnamic acid (CNA), cinnamic acid] , and I need its recorded Cmax.
Data returned: 342

###

assay: Plasma nutrikinetics of unconjugated phenolic/aromatic acids after curry test meals (LC-MS/MS, non-compartmental); conditions: male, human, plasma, oral, 6 g mixed spices
Rule: Cmax below 80 nM gives Yes. Equal to or above 80 nM gives No.

Some entries whose results are on file:
| COMPOUND | ASSIGNED LABEL |
| --- | --- |
| O=C(O)CCc1ccccc1 [3-Phenylpropanoate acid (PPA), 3-phenylpropanoic acid] | No |
| O=C(O)/C=C/c1ccccc1 | No |
| O=C(O)CCc1ccc(O)cc1 [3-(4-hydroxyphenyl)-propanoic acid] | Yes |

Data request: Please state whether Cmax is below 80 nM for O=C(O)CNC(=O)c1cccc(O)c1 [3-Hydroxyhippuric acid (3OH-HA), 3-hydroxyhippuric acid]
Data returned: Yes

Data request: Would you kindly verify if Cmax of O=C(O)CNC(=O)c1ccccc1 is strictly less than 80 nM?
Data returned: No

Data request: Consider the compound O=C(O)Cc1ccc(O)cc1 [4-Hydroxyphenylacetic acid (4OH-PAA), 4-hydroxyphenylacetic acid] . Is its Cmax strictly less than 80 nM?
Data returned: No

Data request: Is the reported Cmax for O=C(O)CCc1cccc(O)c1 [3-(3-hydroxyphenyl)-propanoic acid] strictly below 80 nM?
Data returned: No

Data request: Lab note: confirm whether the reported Cmax for this compound is below 80 nM, equality not counting. compound: O=C(O)c1ccc(O)cc1 [4-Hydroxybenzoic acid (4OH-BA), 4-hydroxybenzoic acid]
Data returned: Yes

Data request: Hello, I'm reviewing records and need to know if Cmax of O=C(O)Cc1cccc(O)c1 [3-Hydroxyphenylacetic acid (3OH-PAA), 3-hydroxyphenylacetic acid] is below 80 nM. Could you check?
Data returned: Yes

###

assay: Compartmental nutrikinetic modeling of the CNA plasma concentration-time profile (one-compartment, first-order elimination); type: in vivo; conditions: male, human, oral, 6 g mixed spices, D1C, Figure 2C, read-out: AUC (one-compartment model)
QUANTITY KIND: AUC

Data request: Entry O=C(O)/C=C/c1ccccc1 [Cinnamic acid (CNA), cinnamic acid] has what AUC?
Data returned: 0.347 µM·h

###

assay: Plasma nutrikinetics of unconjugated phenolic/aromatic acids after curry test meals (LC-MS/MS, non-compartmental); settings: male, human, in vivo, 6 g mixed spices
QUANTITY KIND: Cmax (nM)
One number for each entry, in nM.

| CHEM SMILES | UNIT ABBREV | Cmax |
| --- | --- | --- |
| O=C(O)c1ccccc1 | nM | 113 |

Please look at the following molecule next.
Data request: Can you share its Cmax? I mean this molecule: O=C(O)Cc1ccccc1
Data returned: 1020

###

What AUC(0-t) was measured for each of the following?
experiment: Plasma nutrikinetics of unconjugated phenolic/aromatic acids after curry test meals (LC-MS/MS, non-compartmental); details: male, human, in vivo, 6 g mixed spices
Answers are plain numbers, in µM·h.

| CHEM SMILES | QUANTITY KIND | UNIT ABBREV | VALUE REPORTED |
| --- | --- | --- | --- |
| O=C(O)c1ccccc1 | AUC(0-t) | µM·h | 0.347 |

# next compound below
Data request: Which AUC(0-t) is reported for this compound? O=C(O)Cc1ccccc1
Data returned: 4.44

Source listed as paper PMC6073423.
